Biological target: flavonoid 7-O-glucuronosyltransferase VpF7GAT (Veronica persica)
Sequence (C0STS8 entry or part of it): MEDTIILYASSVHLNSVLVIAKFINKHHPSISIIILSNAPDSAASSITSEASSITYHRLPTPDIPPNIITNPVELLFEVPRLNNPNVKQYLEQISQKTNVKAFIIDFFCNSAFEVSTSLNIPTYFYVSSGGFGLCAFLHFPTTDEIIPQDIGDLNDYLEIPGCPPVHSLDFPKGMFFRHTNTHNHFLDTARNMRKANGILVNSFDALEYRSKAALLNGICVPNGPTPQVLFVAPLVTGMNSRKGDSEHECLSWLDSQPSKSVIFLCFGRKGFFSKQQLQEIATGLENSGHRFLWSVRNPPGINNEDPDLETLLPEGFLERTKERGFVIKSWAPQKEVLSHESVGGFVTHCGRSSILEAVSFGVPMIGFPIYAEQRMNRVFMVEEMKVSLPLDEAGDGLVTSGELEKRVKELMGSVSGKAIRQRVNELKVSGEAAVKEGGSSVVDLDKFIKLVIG
Test: Selectivity of VpF7GAT to glycosyl acceptor substrates (glycosyl donor: UDP-glucuronic acid)
Format: biochemical
Conditions: glycosyl donor UDP-glucuronic acid; activity to apigenin made 100%; FIG. 3
Readout type: relative activity of glycosyl acceptor substrate (%)
Give bare numbers, in %.

Examples with answers:
Given item COc1cc(-c2cc(=O)c3c(O)cc(O)cc3o2)ccc1O , the value recorded as its relative activity of glycosyl acceptor substrate is 34.0

Given item COc1ccc(-c2cc(=O)c3c(O)cc(O)cc3o2)cc1O , the value recorded as its relative activity of glycosyl acceptor substrate is 12.9

Given item O=c1cc(-c2ccccc2)oc2cc(O)c(O)c(O)c12 , the value recorded as its relative activity of glycosyl acceptor substrate is 13.1

Given item O=C1C[C@@H](c2ccc(O)cc2)Oc2cc(O)cc(O)c21 , the value recorded as its relative activity of glycosyl acceptor substrate is 18.0

Then this compound:
Given item O=c1cc(-c2ccc(O)cc2)oc2cc(O)cc(O)c12 , the value recorded as its relative activity of glycosyl acceptor substrate is 100

* * *

Can you tell me relative activity of glycosyl acceptor substrate for the items I'm about to list?
Target: flavonoid 7-O-glucuronosyltransferase VpF7GAT (Veronica persica)
Assay: Selectivity of VpF7GAT to glycosyl acceptor substrates (glycosyl donor: UDP-glucuronic acid)
Format: biochemical
Conditions: glycosyl donor UDP-glucuronic acid; activity to apigenin made 100%; FIG. 3
Description: Standard reaction conditions are as follows. […] The mixture was reacted at 30° C. for 1 minute. The reaction was then terminated by adding 50 μl of CH3CN containing 0.5% TFA. The product was analyzed by reversed phase HPLC (LC-2010 System, Shimadzu Corporation). The conditions for HPLC are as follows. Develosil C30-UG-5 column (4.6 mm×150 mm, Nomura Chemical) was used with a column oven at 40° C., and the moving phase A (0.1% TFA/H2O) and the moving phase B (0.1% TFA/90% CH3CN) were used. […]
One number for each entry, in %.

Given the compound O=c1c(O)c(-c2ccc(O)c(O)c2)oc2cc(O)cc(O)c12 and test system flavonoid 7-O-glucuronosyltransferase VpF7GAT (Veronica persica), the measured relative activity of glycosyl acceptor substrate is 1.0

Given the compound O=c1cc(-c2ccc(O)cc2)oc2cc(O)c(O)c(O)c12 and test system flavonoid 7-O-glucuronosyltransferase VpF7GAT (Veronica persica), the measured relative activity of glycosyl acceptor substrate is 88.3

Then this compound:
Given the compound O=c1c(O)c(-c2ccc(O)cc2)oc2cc(O)cc(O)c12 and test system flavonoid 7-O-glucuronosyltransferase VpF7GAT (Veronica persica), the measured relative activity of glycosyl acceptor substrate is 13.3
